B1: NF2 (merlin) isoform 7, human, full length (507 aa, lacks exons 2-3 = isoform-1 residues 39-121; exon-16 C-terminus), P35240-4 (parent)
chain: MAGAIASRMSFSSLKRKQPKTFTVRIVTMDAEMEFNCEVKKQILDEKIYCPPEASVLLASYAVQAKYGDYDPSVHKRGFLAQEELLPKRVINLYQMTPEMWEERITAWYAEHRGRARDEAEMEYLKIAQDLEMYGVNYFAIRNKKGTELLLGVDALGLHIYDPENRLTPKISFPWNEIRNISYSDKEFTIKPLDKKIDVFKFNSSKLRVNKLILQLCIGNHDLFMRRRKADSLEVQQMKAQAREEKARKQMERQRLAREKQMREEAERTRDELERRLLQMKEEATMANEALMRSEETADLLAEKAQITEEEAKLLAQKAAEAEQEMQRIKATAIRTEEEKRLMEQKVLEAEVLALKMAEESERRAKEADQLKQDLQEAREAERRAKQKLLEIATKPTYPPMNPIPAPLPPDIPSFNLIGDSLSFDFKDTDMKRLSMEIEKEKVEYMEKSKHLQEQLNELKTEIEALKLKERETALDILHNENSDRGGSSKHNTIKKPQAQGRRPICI

# Variants of: B1
# assay_notes: reverse yeast two-hybrid deep mutational scan (rY2H-seq): NF2 isoform 7 mutant library as bait mated with wild-type prey strains; selection on medium lacking adenine for non-interacting pairs; NextSeq paired-end sequencing; enrichment vs …
# stated_conditions: with KDM1A (lysine-specific histone demethylase 1A; the table's label AOF2 is a gene synonym of KDM1A), O60341; yeast diploids after mating (RBait_S3 x RPrey_S3), 30 °C, selection for reporter genes on NB agar; human tyrosine kinase ABL2 co-expressed as the active kinase …; HIGHER = WEAKER BINDING (the opposite of display enrichments): higher = stronger loss of interaction: reverse Y2H selects yeast in which bait and prey do NOT interact (growth without adenine), so a …; hits-only table; scale: rY2H score; numbering: uniprot, sequence starts at 1
# cutoff 4 applies to enrichment; >= gives MET, < gives NOT MET

Item Q345K with enrichment of 4 or above? NOT MET

Tell me whether enrichment is at least 4 here: K469A NOT MET

Entry R379C : is its enrichment no less than 4? NOT MET

Please tell me: is the variant H159A at or over 4 in terms of enrichment? NOT MET

Given P407A , state whether its enrichment is at least 4. NOT MET

Has I329K a recorded enrichment greater than or equal to 4? NOT MET

Decide: enrichment of A65V >= 4? NOT MET

Please indicate if the recorded enrichment for K318T meets or exceeds 4. NOT MET

Exam item: decide whether the reported enrichment for Y161K is at least 4. MET

Is enrichment at least 4? Consider S55E MET

hey, is enrichment for this one >= 4? Q345E NOT MET

Please indicate if the recorded enrichment for Q82D meets or exceeds 4. NOT MET

Has A331K a recorded enrichment greater than or equal to 4? MET

Decide: is the reported value of enrichment for R335L equal to or greater than 4? NOT MET

Item Y61L with enrichment of 4 or above? MET

Exam item: decide whether the reported enrichment for Q64K is at least 4. NOT MET

Could you please find out whether P396A has enrichment that meets 4 or exceeds it? MET

Is enrichment for Q250D at or above 4? NOT MET

Could you tell me if the measured enrichment of K126E reaches 4 or more? MET

Confirm if enrichment reported for the variant M286A is 4 or above. NOT MET

Exam item: decide whether the reported enrichment for R268E is at least 4. MET

Reported enrichment at or above 4? L389E NOT MET
